Target: human recombinant PDE9 enzyme (Homo sapiens, UniProt O76083)
Construct: made in house; host or cells: SF-9 insect cells
Sequence (O76083 whole entry): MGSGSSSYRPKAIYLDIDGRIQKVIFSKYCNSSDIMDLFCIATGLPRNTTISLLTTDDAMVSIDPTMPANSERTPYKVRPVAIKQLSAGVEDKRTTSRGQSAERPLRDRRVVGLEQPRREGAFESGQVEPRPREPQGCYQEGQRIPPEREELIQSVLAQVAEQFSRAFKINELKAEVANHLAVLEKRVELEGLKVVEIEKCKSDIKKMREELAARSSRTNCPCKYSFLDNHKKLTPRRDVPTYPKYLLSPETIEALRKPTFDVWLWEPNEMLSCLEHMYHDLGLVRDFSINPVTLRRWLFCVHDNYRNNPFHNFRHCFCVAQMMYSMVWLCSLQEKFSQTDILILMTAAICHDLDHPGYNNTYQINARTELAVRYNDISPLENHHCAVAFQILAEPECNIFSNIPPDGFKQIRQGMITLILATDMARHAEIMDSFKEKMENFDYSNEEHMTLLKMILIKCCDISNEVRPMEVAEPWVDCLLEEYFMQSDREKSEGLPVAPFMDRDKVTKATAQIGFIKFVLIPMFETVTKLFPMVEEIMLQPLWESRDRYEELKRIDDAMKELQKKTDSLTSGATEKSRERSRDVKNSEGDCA
Assay: Phosphodiesterase 9 (PDE9) inhibitory activity, Scintillation Proximity (SPA) assay
Type: biochemical
Settings: human recombinant PDE9 from SF-9 cells; 50 nM [3H]cGMP; room temperature, 30 min; additional compounds Ex. 115-228; read-out: G5678A (U):IC50
// classify: if (IC50 < 50 nM) t else f

>>> print(df.to_string())
                                    compound  group_label
 0  C[C@@H]1CN(Cc2nc3ccccc3n2C)C[C@H]1c1nc2c(cnn2C2CCCC2)c(=O)[nH]1 (racemic) [Example 199]            t
 1  C[C@@H]1CN(Cc2cccc3nsnc23)C[C@H]1c1nc2c(cnn2C2CCCC2)c(=O)[nH]1 (racemic) [Example 221]            t
 2  Cc1ccc(C)c(CN2C[C@@H](C)[C@H](c3nc4c(cnn4C4CCCC4)c(=O)[nH]3)C2)c1 (racemic) [Example 162]            f
 3  Cc1ccc(CN2C[C@@H](C)[C@H](c3nc4c(cnn4C4CCCC4)c(=O)[nH]3)C2)cc1 (racemic) [Example 136]            f
 4  CC(C)c1ccc(CN2C[C@@H](C)[C@H](c3nc4c(cnn4C4CCCC4)c(=O)[nH]3)C2)cc1 (racemic) [Example 169]            f
 5  Cc1ccc(CN2C[C@@H](C)[C@H](c3nc4c(cnn4C4CCCC4)c(=O)[nH]3)C2)c(F)c1F (racemic) [Example 134]            f
 6  C[C@@H]1CN(Cc2ccccc2F)C[C@H]1c1nc2c(cnn2C2CCCC2)c(=O)[nH]1 (racemic) [Example 218]            t
 7  Cc1cccc(C)c1CN1C[C@@H](C)[C@H](c2nc3c(cnn3C3CCCC3)c(=O)[nH]2)C1 (relative stereo) [Example 195]            f
 8  C[C@@H]1CN(Cc2cnn3c2CCCCC3)C[C@H]1c1nc2c(cnn2C2CCCC2)c(=O)[nH]1 (racemic) [Example 214]            t
 9  C[C@@H]1CN(Cc2ccc(-n3cccn3)cc2)C[C@H]1c1nc2c(cnn2C2CCCC2)c(=O)[nH]1 (racemic) [Example 185]            t
10  C[C@@H]1CN(Cc2ccc(C#N)cc2)C[C@H]1c1nc2c(cnn2C2CCCC2)c(=O)[nH]1 (racemic) [Example 193]            f
11  CCCc1ncc(CN2C[C@@H](C)[C@H](c3nc4c(cnn4C4CCCC4)c(=O)[nH]3)C2)cn1 (racemic) [Example 222]            t
12  COc1cc(CN2C[C@@H](C)[C@H](c3nc4c(cnn4C4CCCC4)c(=O)[nH]3)C2)cc(OC)c1 (racemic) [Example 152]            t
13  C[C@@H]1CN(Cc2ccc(F)cc2F)C[C@H]1c1nc2c(cnn2C2CCCC2)c(=O)[nH]1 (racemic) [Example 147]            f
14  C[C@@H]1CN(Cc2ccccc2C#N)C[C@H]1c1nc2c(cnn2C2CCCC2)c(=O)[nH]1 (racemic) [Example 157]            f
15  C[C@@H]1CN(Cc2ccnc(C(C)(C)O)c2)C[C@H]1c1nc2c(cnn2C2CCCC2)c(=O)[nH]1 (racemic) [Example 189]            t
16  C[C@@H]1CN(Cc2ccc(Cl)cc2Cl)C[C@H]1c1nc2c(cnn2C2CCCC2)c(=O)[nH]1 (racemic) [Example 213]            f
17  C[C@@H]1CN(Cc2ccccc2OC(F)(F)F)C[C@H]1c1nc2c(cnn2C2CCCC2)c(=O)[nH]1 (racemic) [Example 224]            f
18  Cc1ccc(CN2C[C@@H](C)[C@H](c3nc4c(cnn4C4CCCC4)c(=O)[nH]3)C2)cc1C (racemic) [Example 198]            f
19  C[C@@H]1CN(Cc2ccccc2C(F)(F)F)C[C@H]1c1nc2c(cnn2C2CCCC2)c(=O)[nH]1 (racemic) [Example 202]            f
20  C[C@@H]1CN(Cc2ccc(F)c(F)c2)C[C@H]1c1nc2c(cnn2C2CCCC2)c(=O)[nH]1 (racemic) [Example 161]            t
21  C[C@@H]1CN(Cc2cccc3c2OCCO3)C[C@H]1c1nc2c(cnn2C2CCCC2)c(=O)[nH]1 (racemic) [Example 149]            t
22  CC(C)Oc1ccccc1CN1C[C@@H](C)[C@H](c2nc3c(cnn3C3CCCC3)c(=O)[nH]2)C1 (racemic) [Example 181]            f
23  COc1ncccc1CN1C[C@@H](C)[C@H](c2nc3c(cnn3C3CCCC3)c(=O)[nH]2)C1 (racemic) [Example 138]            t
24  C[C@@H]1CN(Cc2ccc(CN3CCOCC3)cc2)C[C@H]1c1nc2c(cnn2C2CCCC2)c(=O)[nH]1 (racemic) [Example 207]            t
